Parameter: Population Mitochondria Different-Phenotype (%). Scope: all listed entries.
system: Fibroblast; assay: Multiplex assay against human fibroblast; type: toxicity, cell-based; conditions: 12 h, 1 µM, compound concentration 1 uM, replicate 1
Field format: number, assumed %, no unit text.

Solved entries (count: 4):
>>> reading("Cl.N=C(N)NC(=O)Cc1c(Cl)cccc1Cl [GUANFACINE HYDROCHLORIDE]")
4
>>> reading("Cc1c(CC(=O)O)c2cccnc2n1Cc1ccc(S(C)(=O)=O)cc1C(F)(F)F")
3
>>> reading("COc1cccc2c1c(NS(=O)(=O)c1ccc(Cl)s1)nn2Cc1cccc(CNC(=O)C(C)(C)O)c1")
2
>>> reading("O=C1[C@H](Cc2ccc(O)cc2)N2C(=O)CCN(C(=O)NCc3ccccc3)[C@H]2CN1Cc1cccc2ccccc12")
11

I have this compound here, CCCCCC(O)/C=C/[C@H]1C(=O)CC(O)C1C/C=C\CCCC(=O)O (some centres undefined) , and I need its recorded Population Mitochondria Different-Phenotype (%).
4

Recorded Population Mitochondria Different-Phenotype (%) for Cc1sc2c(c1C)C(c1ccc(Cl)cc1)=N[C@@H](CC(=O)NCCCCCCCCNC(=O)COc1cccc3c1C(=O)N(C1CCC(=O)NC1=O)C3=O)c1nnc(C)n1-2 (some centres undefined) , please?
4

May I ask what Population Mitochondria Different-Phenotype (%) has been recorded for CCCCC(=O)N(Cc1ccc(-c2ccccc2-c2nnn[nH]2)cc1)[C@H](C(=O)O)C(C)C ?
0

Requested field: Population Mitochondria Different-Phenotype (%). Item: N#Cc1c(Oc2cccc(OS(=O)(=O)CCCC(F)(F)F)c2)cccc1C(F)(F)F
7

Given Cc1cnc(-c2cc(N3CCN(C(=O)CCS(C)(=O)=O)CC3)ncc2Cl)c(C)c1 , state its recorded Population Mitochondria Different-Phenotype (%).
7

Quick check: Population Mitochondria Different-Phenotype (%) of Cc1onc(-c2ccccc2Cl)c1C(=O)N(C)c1ccc(Cl)cc1 ?
7

Requested read-out: Population Mitochondria Different-Phenotype (%). Entry: CN(C)C(=O)Cn1cc(-c2ccc(-c3cncc4ccccc34)cc2)cn1
5

Please report the recorded Population Mitochondria Different-Phenotype (%) for CC(C)COc1ccc(CNC(=O)N(Cc2ccc(F)cc2)C2CCN(C)CC2)cc1 .
12

Return reported Population Mitochondria Different-Phenotype (%); argument: CN[C@@H](C)C(=O)N[C@H](C(=O)N1CCC[C@H]1C(=O)Nc1snnc1-c1ccccc1)C1CCCCC1
6

For the compound shown here, NCCc1cn(S(=O)(=O)c2c(Cl)nc3sccn23)c2ccccc12.O=C(O)C(=O)O , give the reported Population Mitochondria Different-Phenotype (%).
5
